// data source = patent US20090022728A1

Target: T1, biotinylated Aβ1-40 peptide (biotinylated (N-biotinylated in Example 7))
T1 construct: captured on streptavidin (SA) chip; also called Biotinylated Aβ peptide 1-40; Aβ1-40 on SA chip
T1 sequence (peptide, as listed by the source): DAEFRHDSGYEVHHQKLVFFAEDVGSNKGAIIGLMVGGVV
Assay: SPR, Fab over Aβ1-40 on SA chip; kon may be assumed = 9TL (footnote 2)
Measure: kon

binder="9TL variant M55 Fab (Fab, V domains shown, Fab; human IgG2 CH1 and kappa CL) VH: QVQLVQSGAEVKKPGASVKVSCKASGYYTEAYYIHWVRQAPGQGLEWMGRIDPATGNTKYAPRLQDRVTMTRDTSTSTVYMELSSLRSEDTAVYYCASLYSLPVIWGQGTTVTVSS VL: DVVMTQSPLSLPVTLGQPASISCKSSQSLLYSDAKTYLNWFQQRPGQSPRRLIYQISRLDPGVPDRFSGSGSGTDFTLKISRVEAEDVGVYYCLQGTHYPVLFGQGTRLEIKR" measure=kon experimental_result="318000 M⁻¹ s⁻¹"
binder="9TL variant M50 Fab (Fab, V domains shown, Fab; human IgG2 CH1 and kappa CL) VH: QVQLVQSGAEVKKPGASVKVSCKASGYYTEAYYIHWVRQAPGQGLEWMGRIDPATGNTKYAPRLQDRVTMTRDTSTSTVYMELSSLRSEDTAVYYCASLYSLPFYWGQGTTVTVSS VL: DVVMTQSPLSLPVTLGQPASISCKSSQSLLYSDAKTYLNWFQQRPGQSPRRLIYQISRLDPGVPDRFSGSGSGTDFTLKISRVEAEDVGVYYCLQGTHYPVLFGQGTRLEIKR" measure=kon experimental_result="318000 M⁻¹ s⁻¹"
binder="9TL variant M3 Fab (Fab, V domains shown, Fab; human IgG2 CH1 and kappa CL) VH: QVQLVQSGAEVKKPGASVKVSCKASGYYTEAYYIHWVRQAPGQGLEWMGRIDPATGNTKYAPRLQDRVTMTRDTSTSTVYMELSSLRSEDTAVYYCASLYSLPVYWGQGTTVTVSS VL: DVVMTQSPLSLPVTLGQPASISCKSSQSLLYSDAKTYLNWFQQRPGQSPRRLIYQISRLDPGVPDRFSGSGSGTDFTLKISRVEAEDVGVYYCCQGTHYPVLFGQGTRLEIKR" measure=kon experimental_result="318000 M⁻¹ s⁻¹"
